These entries and their values trace back to ChEMBL document CHEMBL2218924.

// reported residual activity for each item listed
# measurement-target: Tyrosine-protein kinase receptor UFO (Homo sapiens) (UniProt P30530)
# Sequence (P30530 whole entry): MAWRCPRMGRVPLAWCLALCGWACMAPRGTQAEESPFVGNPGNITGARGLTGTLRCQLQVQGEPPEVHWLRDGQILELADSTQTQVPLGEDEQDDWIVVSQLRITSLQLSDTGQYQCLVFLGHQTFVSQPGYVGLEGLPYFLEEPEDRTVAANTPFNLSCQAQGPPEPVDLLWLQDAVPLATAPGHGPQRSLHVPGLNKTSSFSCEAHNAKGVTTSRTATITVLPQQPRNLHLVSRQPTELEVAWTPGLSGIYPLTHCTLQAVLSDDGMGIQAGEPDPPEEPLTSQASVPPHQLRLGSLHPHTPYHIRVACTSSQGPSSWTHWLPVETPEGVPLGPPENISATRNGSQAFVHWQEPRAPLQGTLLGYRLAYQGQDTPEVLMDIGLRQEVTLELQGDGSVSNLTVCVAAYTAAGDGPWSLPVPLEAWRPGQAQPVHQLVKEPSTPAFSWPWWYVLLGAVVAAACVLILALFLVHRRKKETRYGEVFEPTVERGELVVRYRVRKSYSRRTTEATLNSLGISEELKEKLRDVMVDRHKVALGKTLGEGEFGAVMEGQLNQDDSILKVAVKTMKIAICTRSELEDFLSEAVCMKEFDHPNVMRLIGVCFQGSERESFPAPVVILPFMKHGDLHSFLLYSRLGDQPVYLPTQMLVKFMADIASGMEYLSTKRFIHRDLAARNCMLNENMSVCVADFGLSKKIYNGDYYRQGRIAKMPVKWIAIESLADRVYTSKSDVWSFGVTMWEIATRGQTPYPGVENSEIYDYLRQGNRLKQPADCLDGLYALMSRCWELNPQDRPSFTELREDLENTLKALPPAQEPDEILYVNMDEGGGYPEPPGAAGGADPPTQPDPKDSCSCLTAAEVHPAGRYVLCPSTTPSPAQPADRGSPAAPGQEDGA
# recorded-conditions: at 1 µM
Just the number in %, nothing appended.

Past entries and their recorded results:
# molecule, residual activity [%]
records = [
    ("CC(C)(C)n1nc(Cc2cccc3ccccc23)c2c(N)ncnc21", 80),
    ("CCN(CC)CCNC(=O)c1c(C)[nH]c(/C=C2\\C(=O)Nc3ccc(Cl)cc32)c1C", 9),
    ("Nc1ncnc2[nH]nc(Nc3ccc(F)cc3)c12", 90),
    ("NC(=O)c1cccc(-c2cc(Nc3ccc(OC(F)(F)F)cc3)ncn2)c1", 89),
]

Query: Sample `N#Cc1c(NC(=O)c2cccc3ccccc23)sc2c1CCCC2` — what was its residual activity?
Reply: 96

Query: Next entry: `O=C(c1cc2cc(O)ccc2[nH]1)c1cc2cc(O)ccc2[nH]1`
Reply: 50

Query: Next entry: `CCCCc1c(-c2ccc(OC)cc2)[nH]c2nccnc12`
Reply: 77

Query: Next entry: `CC(C)[C@H](CO)Nc1nc(Nc2cc(N)cc(Cl)c2)c2ncn(C(C)C)c2n1`
Reply: 80

###

// reported residual activity for each item listed
# measurement-target: Mitogen-activated protein kinase kinase kinase 9 (Homo sapiens) (UniProt P80192)
# Sequence (P80192 whole entry, looked up): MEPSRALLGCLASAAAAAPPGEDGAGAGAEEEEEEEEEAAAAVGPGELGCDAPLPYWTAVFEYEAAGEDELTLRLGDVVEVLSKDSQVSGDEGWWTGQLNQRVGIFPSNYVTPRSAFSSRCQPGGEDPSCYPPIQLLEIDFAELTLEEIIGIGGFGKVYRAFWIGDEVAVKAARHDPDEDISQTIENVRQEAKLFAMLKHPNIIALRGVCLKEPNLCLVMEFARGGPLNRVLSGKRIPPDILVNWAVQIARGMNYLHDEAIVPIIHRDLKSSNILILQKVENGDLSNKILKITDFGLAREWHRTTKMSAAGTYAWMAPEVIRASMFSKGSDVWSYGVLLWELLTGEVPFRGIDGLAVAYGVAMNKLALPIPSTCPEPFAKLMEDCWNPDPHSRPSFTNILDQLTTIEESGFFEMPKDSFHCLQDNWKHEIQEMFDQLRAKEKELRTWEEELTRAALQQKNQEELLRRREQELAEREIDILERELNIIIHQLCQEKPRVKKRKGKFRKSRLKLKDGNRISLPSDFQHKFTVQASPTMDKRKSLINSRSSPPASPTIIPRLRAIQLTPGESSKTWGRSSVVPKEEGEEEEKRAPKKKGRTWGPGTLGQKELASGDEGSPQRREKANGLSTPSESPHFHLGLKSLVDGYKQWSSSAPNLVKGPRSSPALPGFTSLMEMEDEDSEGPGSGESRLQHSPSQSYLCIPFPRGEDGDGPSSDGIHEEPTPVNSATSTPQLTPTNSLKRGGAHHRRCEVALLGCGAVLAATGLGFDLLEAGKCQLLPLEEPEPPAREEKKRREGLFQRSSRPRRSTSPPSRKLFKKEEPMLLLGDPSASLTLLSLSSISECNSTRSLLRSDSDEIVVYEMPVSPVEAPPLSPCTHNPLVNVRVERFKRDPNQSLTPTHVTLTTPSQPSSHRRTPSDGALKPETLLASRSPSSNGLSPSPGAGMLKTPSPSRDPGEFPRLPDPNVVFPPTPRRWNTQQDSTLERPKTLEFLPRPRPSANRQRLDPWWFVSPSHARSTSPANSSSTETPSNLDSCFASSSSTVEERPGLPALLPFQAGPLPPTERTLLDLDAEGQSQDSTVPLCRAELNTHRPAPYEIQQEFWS
# recorded-conditions: at 1 µM
Just the number in %, nothing appended.

Query: Sample `c1ccc(-c2cnc(Nc3ccc(OCCN4CCCC4)cc3)s2)cc1` — what was its residual activity?
Reply: 74

Query: Next entry: `O=C1C(Cl)=C(N2C(=O)CCC2=O)C(=O)c2ccccc21`
Reply: 96

Query: Next entry: `Cn1sc(=O)n(Cc2ccccc2)c1=O`
Reply: 92

Query: Next entry: `N#Cc1c(NC(=O)c2cccc3ccccc23)sc2c1CCCC2`
Reply: 96

Query: Next entry: `CCN(CC)CCNC(=O)c1c(C)[nH]c(/C=C2\C(=O)Nc3ccc(Cl)cc32)c1C`
Reply: 24

Query: Next entry: `NC(=O)c1ccc(-c2nc(-c3ccc4c(c3)OCCO4)c(-c3ccccn3)[nH]2)cc1`
Reply: 94

###

# measurement-target: Tyrosine-protein kinase Lyn (Homo sapiens)
# recorded-conditions: at 1 µM
// reported residual activity for each item listed
Just the number in %, nothing appended.

Past entries and their recorded results:
# molecule, residual activity [%]
measured = [
    ("O=C(CCCc1ccc(-c2ccccc2F)cc1)Nc1ccc(O)cc1", 97),
    ("COc1ccc(-c2cnc3c(-c4ccsc4)cnn3c2)cc1", 98),
    ("O=C1NC(=O)C(c2c[nH]c3ccccc23)=C1c1c[nH]c2ccccc12", 82),
    ("COc1cc2ncnc(Nc3cccc(Cl)c3)c2cc1OC", 10),
    ("O=C1Nc2ccc(Cl)cc2/C1=C/c1cc(Cl)c(O)c(Cl)c1", 81),
]

Query: Sample `CC(C)c1nn(-c2c(Cl)cccc2Cl)c2nc(Cc3ccc(OCCO)cc3)[nH]c(=O)c12` — what was its residual activity?
Reply: 81

###

// reported residual activity for each item listed
# measurement-target: cGMP-dependent protein kinase 1 (Homo sapiens)
# Sequence (whole entry): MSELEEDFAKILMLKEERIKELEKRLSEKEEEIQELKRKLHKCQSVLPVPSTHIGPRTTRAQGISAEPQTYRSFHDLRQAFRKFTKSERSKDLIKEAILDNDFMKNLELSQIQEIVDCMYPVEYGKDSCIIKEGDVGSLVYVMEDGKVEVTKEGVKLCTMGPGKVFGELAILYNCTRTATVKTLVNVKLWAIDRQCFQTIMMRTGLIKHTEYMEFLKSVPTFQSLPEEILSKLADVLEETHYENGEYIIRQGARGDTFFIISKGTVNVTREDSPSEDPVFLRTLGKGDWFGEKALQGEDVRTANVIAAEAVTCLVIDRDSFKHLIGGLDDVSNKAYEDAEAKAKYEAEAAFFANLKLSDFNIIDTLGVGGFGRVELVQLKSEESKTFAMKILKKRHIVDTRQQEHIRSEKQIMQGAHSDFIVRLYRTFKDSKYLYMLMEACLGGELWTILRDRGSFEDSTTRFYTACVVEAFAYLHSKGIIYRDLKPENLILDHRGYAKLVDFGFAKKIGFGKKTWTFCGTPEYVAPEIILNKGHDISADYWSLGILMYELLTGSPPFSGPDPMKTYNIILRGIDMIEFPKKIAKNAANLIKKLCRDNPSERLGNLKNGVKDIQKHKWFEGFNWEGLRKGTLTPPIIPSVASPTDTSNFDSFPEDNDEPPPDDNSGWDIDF
# recorded-conditions: at 1 µM

Past entries and their recorded results:
# molecule, measurement-target, observed-property, reported-result
records = [
    ("N#Cc1c(NC(=O)c2cccc3ccccc23)sc2c1CCCC2", "cGMP-dependent protein kinase 1 (Homo sapiens)", "residual activity", "96%"),
    ("CCCCc1c(-c2ccc(OC)cc2)[nH]c2nccnc12", "cGMP-dependent protein kinase 1 (Homo sapiens)", "residual activity", "107%"),
    ("O=S(=O)(NCCNC/C=C/c1ccc(Br)cc1)c1cccc2cnccc12", "cGMP-dependent protein kinase 1 (Homo sapiens)", "residual activity", "4%"),
    ("CN(C)S(=O)(=O)c1ccc2c(c1)/C(=C/c1cc3c([nH]1)CCCC3)C(=O)N2", "cGMP-dependent protein kinase 1 (Homo sapiens)", "residual activity", "89%"),
]

Field: next compound
Query: Kindly state the measured residual activity obtained for `COc1cc2nccc(Oc3ccc(NC(=S)NC(=O)c4ccccc4C)cc3)c2cc1OC` with cGMP-dependent protein kinase 1 (Homo sapiens).
Reply: 69%
